Cited source for all entries: patent US20180030151A1

Recorded FXa assay % of FXa alone, 2.5 nM Ab, 10 nM TFPI values for a group of binders are listed next.
# Target desc: recombinant human TFPI (tissue factor pathway inhibitor) (human, UniProt P10646 29-304)
# Test summary: cell-based or functional assay
A number alone suffices; assume %.

These solved cases illustrate the format of a correct answer.
{"Binder": "clone 1214 (antibody, V domains shown) VH: EVQLVESGGGLVKPGGSLRLSCAASGFTFSSYAMNWVRQAPGKGLEWVSTITTGGSYTYYADSVEGRFTISRDNAKNSLYLQMNSLRAEDTAVYYCARQDGNFLMDYWGQGTLVTVSS VL: DVVMTQTPLSLPVTLGQPASISCKSSQSLLDVDGKTYLNWLQQRPGQSPKRLIYLVSKLDSGVPDRFTGSGSGTDFTLKISRVEAEDVGVYYCWQGTHFPFTFGQGTKVEIKR", "Value unit": "%", "Recorded measurement": 6.9}
{"Binder": "clone 1023 (antibody, V domains shown, scFv on yeast at selection; human IgG4/kappa IgG as purified) VH: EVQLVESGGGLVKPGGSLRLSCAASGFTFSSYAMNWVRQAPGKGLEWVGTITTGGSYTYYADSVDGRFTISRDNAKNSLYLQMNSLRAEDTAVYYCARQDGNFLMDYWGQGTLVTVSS VL: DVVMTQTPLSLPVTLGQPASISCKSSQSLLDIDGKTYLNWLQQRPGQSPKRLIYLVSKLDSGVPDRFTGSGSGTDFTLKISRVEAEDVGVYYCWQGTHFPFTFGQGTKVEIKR", "Value unit": "%", "Recorded measurement": 5.2}
{"Binder": "clone 1238 (antibody, V domains shown) VH: EVQLVESGGGLVKPGGSLRLSCAASGFTFSSYAMNWVRQAPGKGLEWVSTITTGGSYTYYADSVEGRFTISRDNAKNSLYLQMNSLRAEDTAVYYCARQDGHFLMDYWGQGTLVTVSS VL: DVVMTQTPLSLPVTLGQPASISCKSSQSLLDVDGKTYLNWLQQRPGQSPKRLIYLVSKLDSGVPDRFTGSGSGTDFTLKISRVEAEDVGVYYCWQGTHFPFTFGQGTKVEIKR", "Value unit": "%", "Recorded measurement": 4.5}

// query Give me measured FXa assay % of FXa alone, 2.5 nM Ab, 10 nM TFPI, please, for this binder: clone 1234 (antibody, V domains shown) VH: EVQLVESGGGLVKPGGSLRLSCAASGFTFSSYAMNWVRQAPGKGLEWVSTITTGGSYTYYADSVQGRFTISRDNAKNSLYLQMNSLRAEDTAVYYCARQDGNFLMDYWGQGTLVTVSS VL: DVVMTQTPLSLPVTLGQPASISCKSSQSLLDIDGKTYLNWLQQRPGQSPKRLIYLVSKLDSGVPDRFTGSGSGTDFTLEISRVEAEDVGVYYCWQGTHFPFTFGQGTKVEIKR
// result 3.8
